percent viable KHYG-1 cells (trypan blue) at 20 μM reference
Tested on: KHYG-1 NK cells
Protocol text: Toxicity to KHYG-1 NK cells (trypan blue viability)
Format: cell-based
Experimental setup: viable cells as percentage of total (% viability), 18 to 24 hours
Description: Toxicity to KHYG-1 NK Cells KHYG-1 cells were washed and resuspended in RPMI+0.1% BSA at 4×10^5 cells/ml and 50 μl of KHYG-1 cells were dispensed to each well of a 96-well V-bottom plate. Test compounds were added to KHYG-1 cells at a concentration of 20 μM and incubated at RT for 20 minutes. […] Trypan blue was added to each well and viable (clear) cells counted as a percentage of total (clear+blue) cell number (% viability).
Measured metric: percent viable KHYG-1 cells (trypan blue) at 20 μM (%)

[
  {
    "Compound": "O=C1NC(=S)N/C1=C/c1cc2ccc(-c3ccc4c(c3)COC4=O)cc2[nH]1 [Cmpd 11]",
    "Number": 86
  },
  {
    "Compound": "CN(C)C(=O)c1ccc(-c2ccc(/C=C3/NC(=S)NC3=O)s2)cc1 [Cmpd 39]",
    "Number": 95
  },
  {
    "Compound": "O=C1NC(=O)/C(=C\\c2ccc(-c3ccc4c(c3)COC4=O)s2)N1 [Cmpd 3]",
    "Number": 82
  },
  {
    "Compound": "N#Cc1cccc(-c2ccc(/C=C3/NC(=S)NC3=O)s2)c1 [Cmpd 34]",
    "Number": 99
  },
  {
    "Compound": "O=C1NC(=S)N/C1=C/c1ccc(-c2ccc3c(c2)COC3=O)s1 [Cmpd 2]",
    "Number": 83
  },
  {
    "Compound": "CCN1Cc2cc(-c3ccc(/C=C4/NC(=S)NC4=O)s3)ccc2C1=O [Cmpd 62]",
    "Number": 79
  },
  {
    "Compound": "CCOC(=O)N1Cc2cc(-c3ccc(/C=C4/NC(=S)NC4=O)s3)ccc2C1=O [Cmpd 65]",
    "Number": 96
  },
  {
    "Compound": "O=C1NC(=S)N/C1=C/c1ccc(-c2ccc3c(c2)CN(CCCN2CCCCC2)C3=O)s1 [Cmpd 75]",
    "Number": 85
  },
  {
    "Compound": "O=C1NC(=S)N/C1=C/c1ccc(-c2ccc3c(c2)CN(CCCN2CCCC2)C3=O)s1 [Cmpd 77]",
    "Number": 80
  },
  {
    "Compound": "O=C1NC(=S)N/C1=C/c1cc2cc(-c3ccc4c(c3)COC4=O)ccc2o1 [Cmpd 10]",
    "Number": 88
  },
  {
    "Compound": "CN(C)CCCN1Cc2cc(-c3ccc(/C=C4/NC(=S)NC4=O)s3)ccc2C1=O [Cmpd 74]",
    "Number": 82
  },
  {
    "Compound": "O=C1NC(=S)N/C1=C\\c1cnc(-c2ccc3c(c2)COC3=O)s1 [Cmpd 55]",
    "Number": 95
  },
  {
    "Compound": "CC(=O)N1Cc2cc(-c3ccc(/C=C4/NC(=S)NC4=O)s3)ccc2C1=O [Cmpd 66]",
    "Number": 85
  },
  {
    "Compound": "O=C1C/C(=C/c2ccc(-c3ccc4c(c3)COC4=O)s2)C(=O)N1 [Cmpd 36]",
    "Number": 65
  },
  {
    "Compound": "O=C1NC(=S)N/C1=C\\c1csc2ccc(-c3ccc4c(c3)COC4=O)cc12 [Cmpd 9]",
    "Number": 0
  },
  {
    "Compound": "CC(=O)OCCN1Cc2cc(-c3ccc(/C=C4/NC(=S)NC4=O)s3)ccc2C1=O [Cmpd 68]",
    "Number": 84
  },
  {
    "Compound": "CCCCN1Cc2cc(-c3ccc(/C=C4/NC(=S)NC4=O)s3)ccc2C1=O [Cmpd 64]",
    "Number": 94
  },
  {
    "Compound": "O=C1NC(=S)N/C1=C/c1ccc(-c2ccc(O)cc2)s1 [Cmpd 35]",
    "Number": 93
  },
  {
    "Compound": "O=C1NC(=S)N/C1=C/c1ccc(-c2ccc(C(=O)NCCN3CCOCC3)cc2)s1 [Cmpd 45]",
    "Number": 88
  },
  {
    "Compound": "COC(=O)c1ccc(-c2ccc(/C=C3/NC(=S)NC3=O)s2)cc1 [Cmpd 19]",
    "Number": 95
  }
]

----------
System under test: recombinant perforin (UniProt P10820)
Sequence (P10820 whole entry): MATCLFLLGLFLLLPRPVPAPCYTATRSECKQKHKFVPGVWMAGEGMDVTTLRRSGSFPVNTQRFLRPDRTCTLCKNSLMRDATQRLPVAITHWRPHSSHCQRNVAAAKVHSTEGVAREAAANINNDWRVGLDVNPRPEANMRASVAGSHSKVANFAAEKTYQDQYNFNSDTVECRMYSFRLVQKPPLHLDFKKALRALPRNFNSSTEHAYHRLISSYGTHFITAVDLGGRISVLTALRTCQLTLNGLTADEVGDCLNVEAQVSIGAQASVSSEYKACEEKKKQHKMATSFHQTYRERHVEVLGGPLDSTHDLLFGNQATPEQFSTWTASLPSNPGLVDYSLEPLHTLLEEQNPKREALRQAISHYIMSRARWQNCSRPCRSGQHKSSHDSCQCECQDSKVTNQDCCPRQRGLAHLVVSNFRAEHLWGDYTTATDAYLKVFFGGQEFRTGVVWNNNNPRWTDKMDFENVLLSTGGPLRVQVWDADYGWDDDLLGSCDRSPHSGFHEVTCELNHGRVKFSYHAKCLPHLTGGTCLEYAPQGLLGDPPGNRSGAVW
Format: cell-based
Experimental setup: read-out: Jurkat IC50; recombinant perforin pre-incubated 30 min with compound; 51Cr-labelled Jurkat cells, 0.1% BSA, 37° C. 4 hours
pIC50: −log10 of the molar value.
Measured metric: pIC50

[
  {
    "Molecule": "O=C1NC(=S)N/C1=C/c1cc2ccc(-c3ccc4c(c3)COC4=O)cc2s1",
    "Number": 6.44
  },
  {
    "Molecule": "CSc1ccc(-c2ccc(/C=C3/NC(=S)NC3=O)s2)cc1",
    "Number": 5.94
  },
  {
    "Molecule": "CC(=O)N1Cc2cc(-c3ccc(/C=C4/NC(=S)NC4=O)s3)ccc2C1=O",
    "Number": 6.03
  },
  {
    "Molecule": "CN(C)C(=O)c1ccc(-c2ccc(/C=C3/NC(=S)NC3=O)s2)cc1",
    "Number": 5.16
  },
  {
    "Molecule": "O=C1NC(=S)N/C1=C/c1cc2cc(-c3ccc4c(c3)COC4=O)ccc2[nH]1",
    "Number": 6.14
  },
  {
    "Molecule": "O=C1NC(=S)N/C1=C\\c1ccc(-c2ccc3c(c2)C(=O)NCC3)s1",
    "Number": 6.17
  },
  {
    "Molecule": "CC(O)CNC(=O)c1ccc(-c2ccc(/C=C3/NC(=S)NC3=O)s2)cc1 (stereo not drawn)",
    "Number": 5.19
  },
  {
    "Molecule": "O=C1NC(=S)N/C1=C/c1cc2cc(-c3ccc4c(c3)COC4=O)ccc2o1",
    "Number": 6.21
  },
  {
    "Molecule": "CCN1Cc2cc(-c3ccc(/C=C4/NC(=S)NC4=O)s3)ccc2C1=O",
    "Number": 6.22
  }
]

----------
System under test: recombinant perforin (UniProt P10820)
Type: cell-based
Experimental setup: recombinant perforin pre-incubated 30 min with compound; 51Cr-labelled Jurkat cells, 0.1% BSA, 37° C. 4 hours; read-out: Jurkat IC50

[
  {
    "Smiles input": "O=C1NC(=S)N/C1=C/c1ccc2cc(-c3ccc4c(c3)COC4=O)ccc2n1",
    "Unit abbrev": "µM",
    "IC50": 0.47
  },
  {
    "Smiles input": "O=C1NC(=S)N/C1=C/c1ccc(-c2ccc3c(c2)COC3=O)cn1",
    "Unit abbrev": "µM",
    "IC50": 2
  }
]

----------
System under test: recombinant perforin (UniProt P10820)
Type: cell-based
Experimental setup: read-out: Jurkat IC50; recombinant perforin pre-incubated 30 min with compound; 51Cr-labelled Jurkat cells, 0.1% BSA, 37° C. 4 hours
Procedure: Inhibition of Perforin-Mediated Lysis of Jurkat Cells The ability of the compounds to inhibit the lysis of nucleated (Jurkat T lymphoma) cells in the presence of 0.1% BSA, as measured by release of ^51Cr was measured. […] The supernatant was collected and assessed for its radioactive content on a gamma counter (Wallac Wizard 1470 automatic gamma counter). Each data point was performed in triplicate and an IC50 was calculated from the range of concentrations described to above.
Measured IC50, listed per entry.
Measured metric: IC50 (µM)

[
  {
    "Compound": "O=C1NC(=S)N/C1=C/c1ccc(-c2ccc(C(=O)NCCN3CCOCC3)cc2)s1",
    "Qualifier symbol": ">",
    "Number": 20
  },
  {
    "Compound": "CCCCN1Cc2cc(-c3ccc(/C=C4/NC(=S)NC4=O)s3)ccc2C1=O",
    "Qualifier symbol": "=",
    "Number": 0.99
  },
  {
    "Compound": "CC(=O)OCc1ccc(-c2ccc(/C=C3/NC(=S)NC3=O)s2)cc1",
    "Qualifier symbol": "=",
    "Number": 3.04
  },
  {
    "Compound": "CS(=O)(=O)c1ccc(-c2ccc(/C=C3/NC(=S)NC3=O)s2)cc1",
    "Qualifier symbol": "=",
    "Number": 13.8
  },
  {
    "Compound": "CC1c2cc(-c3ccc(/C=C4/NC(=S)NC4=O)s3)ccc2C(=O)N1C (centres unmarked)",
    "Qualifier symbol": "=",
    "Number": 3.21
  }
]

----------
Test system: KHYG-1 NK cells
Protocol text: Toxicity to KHYG-1 NK cells (trypan blue viability)
Assay type: cell-based
Experimental setup: viable cells as percentage of total (% viability), 18 to 24 hours
Measured metric: percent viable KHYG-1 cells (trypan blue) at 20 μM (%)

[
  {
    "Compound": "COc1ccc(-c2ccc(/C=C3/NC(=S)NC3=O)s2)cc1",
    "Number": 100
  },
  {
    "Compound": "O=C1NC(=S)N/C1=C\\c1ccc(-c2ccc3c(c2)CNC3=O)cn1",
    "Number": 97
  },
  {
    "Compound": "O=C1NC(=O)/C(=C\\c2ccc(-c3ccc4c(c3)CNC4=O)s2)N1",
    "Number": 92
  },
  {
    "Compound": "CC(=O)OCc1ccc(-c2ccc(/C=C3/NC(=S)NC3=O)s2)cc1",
    "Number": 100
  },
  {
    "Compound": "NC(=O)c1ccc(-c2ccc(/C=C3/NC(=S)NC3=O)s2)cc1",
    "Number": 52
  },
  {
    "Compound": "O=C1NC(=S)N/C1=C/c1cc2cc(-c3ccc4c(c3)COC4=O)ccc2s1",
    "Number": 72
  },
  {
    "Compound": "O=C1NC(=S)N/C1=C/c1ccc(-c2cccc(Cl)c2)s1",
    "Number": 55
  },
  {
    "Compound": "O=C1NC(=S)N/C1=C\\c1csnc1-c1ccc2c(c1)COC2=O",
    "Number": 93
  },
  {
    "Compound": "O=C1NC(=S)N/C1=C/c1cc2cc(-c3ccc4c(c3)COC4=O)ccc2[nH]1",
    "Number": 94
  },
  {
    "Compound": "O=C1NC(=S)N/C1=C/c1cc(-c2ccc3c(c2)COC3=O)cs1",
    "Number": 96
  },
  {
    "Compound": "O=C1NC(=S)N/C1=C/c1ccc(-c2ccc3c(c2)COC3=O)o1",
    "Number": 66
  },
  {
    "Compound": "CNC(=O)c1ccc(-c2ccc(/C=C3/NC(=S)NC3=O)s2)cc1",
    "Number": 97
  },
  {
    "Compound": "CN1Cc2ccc(-c3ccc(/C=C4/NC(=S)NC4=O)s3)cc2C1=O",
    "Number": 85
  },
  {
    "Compound": "O=C1NC(=S)N/C1=C/c1ccc2cc(-c3ccc4c(c3)COC4=O)ccc2n1",
    "Number": 81
  },
  {
    "Compound": "O=C1NC(=S)N/C1=C/c1ccc(-c2ccc3c(c2)CN(CCCO)C3=O)s1",
    "Number": 88
  },
  {
    "Compound": "O=C1NC(=S)N/C1=C/c1ccc(-c2ccc(Br)cc2)s1",
    "Number": 83
  },
  {
    "Compound": "O=C1NC(=S)N/C1=C/c1ccc(-c2ccc(C(=O)NCCCN3CCOCC3)cc2)s1",
    "Number": 89
  },
  {
    "Compound": "CN1Cc2cc(-c3ccc(/C=C4/NC(=S)NC4=O)s3)ccc2C1=O",
    "Number": 76
  },
  {
    "Compound": "O=C1NC(=S)N/C1=C/c1ccc(-c2ccc3c(c2)C(=O)NC3)s1",
    "Number": 81
  },
  {
    "Compound": "O=C1NC(=S)N/C1=C/c1ccc(-c2ccc(Cl)cc2)s1",
    "Number": 89
  },
  {
    "Compound": "O=C1NC(=S)N/C1=C\\c1cc(-c2ccc3c(c2)COC3=O)no1",
    "Number": 82
  },
  {
    "Compound": "CCCN1Cc2cc(-c3ccc(/C=C4/NC(=S)NC4=O)s3)ccc2C1=O",
    "Number": 94
  },
  {
    "Compound": "O=C1NC(=S)N/C1=C/c1cc2ccc(-c3ccc4c(c3)COC4=O)cc2s1",
    "Number": 75
  },
  {
    "Compound": "CC(C)N1Cc2cc(-c3ccc(/C=C4/NC(=S)NC4=O)s3)ccc2C1=O",
    "Number": 92
  },
  {
    "Compound": "CSc1ccc(-c2ccc(/C=C3/NC(=S)NC3=O)s2)cc1",
    "Number": 83
  },
  {
    "Compound": "O=C1NC(=S)N/C1=C/c1ccc(-c2ccc(C(=O)NCC(O)CO)cc2)s1 (stereo not shown)",
    "Number": 82
  },
  {
    "Compound": "O=C1NC(=S)N/C1=C/c1ccc(-c2ccc3c(c2)CN(CCO)C3=O)s1",
    "Number": 77
  },
  {
    "Compound": "O=C1NC(=S)N/C1=C/c1cnc(-c2ccc3c(c2)COC3=O)o1",
    "Number": 100
  },
  {
    "Compound": "[H]/N=C1/NC(=O)/C(=C\\c2ccc(-c3ccc4c(c3)COC4=O)s2)N1C",
    "Number": 100
  },
  {
    "Compound": "O=C1NC(=S)N/C1=C\\c1ccc(-c2ccc3c(c2)C(=O)NCC3)s1",
    "Number": 88
  },
  {
    "Compound": "O=C1NC(=S)N/C1=C\\c1ccc(-c2ccc3c(c2)COC3=O)cc1",
    "Number": 95
  },
  {
    "Compound": "O=C1NC(=S)N/C1=C\\c1ccc2ccc(-c3ccc4c(c3)COC4=O)cc2n1",
    "Number": 70
  },
  {
    "Compound": "O=C1NC(=S)N/C1=C/c1ccc(-c2ccc3c(c2)CN(CCN2CCOCC2)C3=O)s1",
    "Number": 73
  },
  {
    "Compound": "O=C1NC(=S)N/C1=C/c1ccc(-c2ccc3c(c2)CNC3=O)s1",
    "Number": 98
  },
  {
    "Compound": "O=C1NC(=S)N/C1=C\\c1cccc(-c2ccc3c(c2)COC3=O)c1",
    "Number": 97
  },
  {
    "Compound": "CC1c2cc(-c3ccc(/C=C4/NC(=S)NC4=O)s3)ccc2C(=O)N1C (stereo not shown)",
    "Number": 95
  },
  {
    "Compound": "CC(O)CNC(=O)c1ccc(-c2ccc(/C=C3/NC(=S)NC3=O)s2)cc1 (stereo not shown)",
    "Number": 91
  }
]
